test: NCI Yeast Anticancer Drug Screen. Data for the rad50EPP+ strain (AID 151); settings: S. cerevisiae rad50 mutant strain, at 3.7 µM
This is part of a sample that, as a whole, favours compounds with a hit. Of some 79,000 tested, about 15% had one in any assay. Activity calls are given as the source filed them. No stated cut-off is given here; in the data, active means growth inhibition above about 70%; inactive means the rest.
Result category, one only: TRUE = active, FALSE = inactive

| molecule | label.class |
| --- | --- |
| Oc1cccc2c(Cl)ccnc12 | TRUE |
| O=C1CSc2cc([N+](=O)[O-])ccc2N1 | FALSE |

Attention now turns to another entry.
Ask: Given C(CCSC1=NCCN1)CSC1=NCCN1 (tested in a mixture with another compound) , state the outcome it received in this test.
Result: FALSE

* * *

experiment: NCI Yeast Anticancer Drug Screen. Data for the rad52 strain (AID 147); conditions: S. cerevisiae rad52 mutant growth inhibition; at 3.7 µM
Compounds without any hit were thinned out: in the full panel of roughly 79,000, 15% have a hit. The source made the active and inactive calls. No stated cut-off is given here; in the data, active means growth inhibition above about 70%; inactive means the rest.
Result category, one only: t for active, f for inactive

Worked examples follow.
| compound | label.class |
| --- | --- |
| CSC1=NNC(SC)=NN1 | f |
| O=C1C2C=CC1C1C(=O)OC(=O)C21 (configuration not stated) | f |
| CCC#CCCCOC(=O)c1cc([N+](=O)[O-])cc([N+](=O)[O-])c1 | f |
| OC1CSCCCSCCSCCCSC1 | f |
| CC(C)c1cc(C(C)C)c(O)c(C([O-])[O-])c1.CC(C)c1cc(C(C)C)c(O)c(C([O-])[O-])c1.CC(C)c1cc(C(C)C)c(O)c(C([OH2+])[OH2+])c1.CC(C)c1cc(C(C)C)c(O)c(C([OH2+])[OH2+])c1.[Cu+2].[Cu+2].[OH3+].[OH3+] | f |

Ask: Given "O=Nc1c(NO)ccc2nn(-c3ccccc3)nc12" , state the outcome it received in this test.
Result: f

Ask: Given "COc1cc2c(cc1[N+](=O)[O-])C(=O)C(Br)(Br)CCC2" , state the outcome it received in this test.
Result: f

Ask: Given "O=C(CCCN1CCC(O)(c2ccc(Cl)cc2)CC1)c1ccc(F)cc1" , state the outcome it received in this test.
Result: f

Ask: Given "CN(C)c1ccc(Sc2ccc3nc(N)nc(N)c3c2)cc1" , state the outcome it received in this test.
Result: f

Ask: Given CC(=O)OC1CCC2(C)C(=CCC3C4CCC5(OC6CC(C)CN(C(C)=O)C6C5C)C(C)=C4C(=O)C32)C1 (configuration not stated) , state the outcome it received in this test.
Result: f

Ask: Given "CC(C)(Br)C(=O)/C=C/c1ccc(Cl)c(Cl)c1" , state the outcome it received in this test.
Result: f

Ask: Given "C#CCCCc1ccccc1" , state the outcome it received in this test.
Result: f

Ask: Given "c1ccc2c(c1)c1ncccc1c1nccnc21" , state the outcome it received in this test.
Result: f

Ask: Given "C=C(CN(C)C)C(=O)c1cc(C)ccc1C" , state the outcome it received in this test.
Result: f

Ask: Given CCCCCCCCCCC1CCC(=O)O1 (configuration not stated) , state the outcome it received in this test.
Result: f

Ask: Given O=C(O)C1OC1(c1cccc(Cl)c1)c1ccccc1Cl (configuration not stated) , state the outcome it received in this test.
Result: f

Ask: Given "CN(C)CCOc1ccc2c(c1)C/C(=C/c1ncc([N+](=O)[O-])n1C)C2=O" , state the outcome it received in this test.
Result: t
